- TARGET_DESC: c-Src(T341M) (Homo sapiens (Human), UniProt P12931, T341M)
- Sequence (P12931 whole entry T341M, looked up): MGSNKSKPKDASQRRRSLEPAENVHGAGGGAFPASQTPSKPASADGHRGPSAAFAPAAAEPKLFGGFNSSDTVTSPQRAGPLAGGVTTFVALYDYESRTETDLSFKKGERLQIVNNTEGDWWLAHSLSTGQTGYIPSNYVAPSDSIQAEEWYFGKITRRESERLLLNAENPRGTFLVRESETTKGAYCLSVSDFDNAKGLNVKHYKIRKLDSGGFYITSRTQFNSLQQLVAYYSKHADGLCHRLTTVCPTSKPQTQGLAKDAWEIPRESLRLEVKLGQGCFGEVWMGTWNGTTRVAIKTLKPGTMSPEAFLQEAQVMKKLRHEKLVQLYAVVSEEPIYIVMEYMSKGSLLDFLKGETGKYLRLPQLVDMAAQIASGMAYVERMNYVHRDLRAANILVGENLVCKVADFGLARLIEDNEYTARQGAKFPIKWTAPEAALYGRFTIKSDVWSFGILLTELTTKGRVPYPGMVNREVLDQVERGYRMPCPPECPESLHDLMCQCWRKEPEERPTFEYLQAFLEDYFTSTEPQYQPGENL
- PROTOCOL_SUMMARY: Kinase inhibition assay (KinaseProfiler, 33P-ATP)
- Assay type: biochemical
- CONDITION_LABEL: c-Src(T341M); ATP at Km
pIC50: −log10 of the molar value.
Known pIC50 of a selection of molecules

{"columns": ["MOLECULE", "TARGET_DESC", "pIC50"],
 "data": [
  ["Cc1ccc(NC(=O)c2cccc(C(F)(F)F)c2)cc1C#Cc1nn(C2CCN(C)CC2)c2ncnc(N)c12 [Compound 31]", "c-Src(T341M) (Homo sapiens (Human), UniProt P12931, T341M)", 5.43],
  ["CCn1nc(C#Cc2cc(C(=O)Nc3ccc(CN4CCN(C)CC4)c(C(F)(F)F)c3)ccc2C)c2c(N)ncnc21 [Compound 3]", "c-Src(T341M) (Homo sapiens (Human), UniProt P12931, T341M)", 7.52]
]}

----------
- Test system: MDA-MB-435
- PROTOCOL_SUMMARY: Cell proliferation inhibition assay (MTT)
- Assay type: cell-based, human
- CONDITION_LABEL: Homo sapiens; MDA-MB-435; MTT, 72 hours; read-out: Proliferation inhibitory activity IC50
pIC50: −log10 of the molar value.

{"columns": ["COMPOUND_STRING", "TARGET_DESC", "pIC50"],
 "data": [
  ["Cc1ccc(NC(=O)c2cccc(C(F)(F)F)c2)cc1C#Cc1nn(C2CCN(C)CC2)c2ncnc(N)c12", "MDA-MB-435", 7.83]
]}

----------
- TARGET_DESC: Blk (Homo sapiens (Human))
- Sequence (P51451 whole entry): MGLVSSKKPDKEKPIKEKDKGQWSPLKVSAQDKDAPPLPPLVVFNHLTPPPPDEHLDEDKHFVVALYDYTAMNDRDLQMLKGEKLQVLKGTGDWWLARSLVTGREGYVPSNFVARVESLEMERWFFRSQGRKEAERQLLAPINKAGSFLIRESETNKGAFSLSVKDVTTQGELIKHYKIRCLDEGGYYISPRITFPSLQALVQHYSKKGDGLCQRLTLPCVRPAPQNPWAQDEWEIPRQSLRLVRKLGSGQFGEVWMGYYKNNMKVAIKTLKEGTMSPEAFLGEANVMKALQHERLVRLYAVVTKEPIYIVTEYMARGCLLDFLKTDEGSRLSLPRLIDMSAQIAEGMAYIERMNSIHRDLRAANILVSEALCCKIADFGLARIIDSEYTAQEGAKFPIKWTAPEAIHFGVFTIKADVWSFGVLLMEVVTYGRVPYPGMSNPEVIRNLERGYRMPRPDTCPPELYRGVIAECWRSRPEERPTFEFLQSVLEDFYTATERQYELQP
pIC50: −log10 of the molar value.

{"columns": ["COMPOUND_STRING", "pIC50"],
 "data": [
  ["CCn1nc(C#Cc2cc(C(=O)Nc3ccc(CN4CCN(C)CC4)c(C(F)(F)F)c3)ccc2C)c2c(N)ncnc21", 7.72]
]}

----------
- TARGET_DESC: Abl (Homo sapiens (Human))
- Sequence (P00519 whole entry): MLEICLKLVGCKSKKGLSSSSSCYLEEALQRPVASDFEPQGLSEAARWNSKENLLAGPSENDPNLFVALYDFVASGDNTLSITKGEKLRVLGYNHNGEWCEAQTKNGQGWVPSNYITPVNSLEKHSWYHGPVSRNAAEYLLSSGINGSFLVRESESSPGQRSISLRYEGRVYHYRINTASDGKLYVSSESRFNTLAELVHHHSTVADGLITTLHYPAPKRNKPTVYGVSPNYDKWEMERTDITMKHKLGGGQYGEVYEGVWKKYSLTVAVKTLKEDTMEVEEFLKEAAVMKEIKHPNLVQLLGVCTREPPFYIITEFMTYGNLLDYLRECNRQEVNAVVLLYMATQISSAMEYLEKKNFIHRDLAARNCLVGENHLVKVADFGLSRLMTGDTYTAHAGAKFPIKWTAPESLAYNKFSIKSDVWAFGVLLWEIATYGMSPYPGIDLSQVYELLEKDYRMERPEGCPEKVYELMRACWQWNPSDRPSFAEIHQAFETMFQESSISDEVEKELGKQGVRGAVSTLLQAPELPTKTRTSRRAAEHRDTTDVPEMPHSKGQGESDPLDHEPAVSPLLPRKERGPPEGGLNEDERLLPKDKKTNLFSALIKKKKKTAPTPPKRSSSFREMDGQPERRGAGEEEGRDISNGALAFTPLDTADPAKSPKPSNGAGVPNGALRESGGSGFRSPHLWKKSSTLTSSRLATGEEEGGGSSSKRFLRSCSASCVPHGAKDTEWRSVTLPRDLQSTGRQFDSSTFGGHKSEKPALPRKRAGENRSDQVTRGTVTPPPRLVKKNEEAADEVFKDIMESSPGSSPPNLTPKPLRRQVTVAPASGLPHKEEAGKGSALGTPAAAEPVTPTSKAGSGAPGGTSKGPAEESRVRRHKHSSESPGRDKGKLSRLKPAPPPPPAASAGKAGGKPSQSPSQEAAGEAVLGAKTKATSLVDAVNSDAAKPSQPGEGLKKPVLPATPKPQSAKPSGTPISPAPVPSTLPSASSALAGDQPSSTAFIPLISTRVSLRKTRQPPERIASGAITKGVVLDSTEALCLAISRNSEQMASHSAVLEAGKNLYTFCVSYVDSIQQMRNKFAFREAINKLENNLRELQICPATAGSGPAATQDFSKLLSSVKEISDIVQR
pIC50: −log10 of the molar value.

{"columns": ["COMPOUND_STRING", "pIC50"],
 "data": [
  ["CCn1nc(C#Cc2cc(C(=O)Nc3ccc(CN4CCN(C)CC4)c(C(F)(F)F)c3)ccc2C)c2c(N)ncnc21", "> 9.00"]
]}

----------
- TARGET_DESC: B-Raf (Homo sapiens (Human), UniProt P15056)
- Sequence (P15056 whole entry): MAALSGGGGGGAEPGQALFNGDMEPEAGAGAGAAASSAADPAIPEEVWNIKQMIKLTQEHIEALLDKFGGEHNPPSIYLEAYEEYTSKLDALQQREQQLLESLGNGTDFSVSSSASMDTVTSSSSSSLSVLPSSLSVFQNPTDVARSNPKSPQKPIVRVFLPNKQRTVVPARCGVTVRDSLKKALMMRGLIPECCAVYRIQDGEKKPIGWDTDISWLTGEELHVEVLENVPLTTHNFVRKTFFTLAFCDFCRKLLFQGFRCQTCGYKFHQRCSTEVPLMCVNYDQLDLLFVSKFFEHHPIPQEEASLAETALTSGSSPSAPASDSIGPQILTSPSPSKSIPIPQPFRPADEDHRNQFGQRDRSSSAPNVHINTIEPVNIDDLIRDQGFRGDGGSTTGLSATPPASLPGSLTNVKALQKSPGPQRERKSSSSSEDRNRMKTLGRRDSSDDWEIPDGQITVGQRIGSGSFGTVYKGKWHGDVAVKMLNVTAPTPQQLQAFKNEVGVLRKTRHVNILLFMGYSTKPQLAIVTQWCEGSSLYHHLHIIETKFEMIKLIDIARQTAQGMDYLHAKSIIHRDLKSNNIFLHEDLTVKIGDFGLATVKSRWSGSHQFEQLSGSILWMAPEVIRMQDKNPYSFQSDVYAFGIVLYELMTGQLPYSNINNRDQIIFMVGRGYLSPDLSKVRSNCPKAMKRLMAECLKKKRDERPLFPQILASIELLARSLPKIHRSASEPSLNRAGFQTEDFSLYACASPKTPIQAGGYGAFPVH
pIC50: −log10 of the molar value.

{"columns": ["COMPOUND", "pIC50"],
 "data": [
  ["CCn1nc(C#Cc2cc(C(=O)Nc3ccc(CN4CCN(C)CC4)c(C(F)(F)F)c3)ccc2C)c2c(N)ncnc21 [Compound 3]", 7.04]
]}

----------
- Test system: MDA-MB-435
- PROTOCOL_SUMMARY: Cell proliferation inhibition assay (MTT)
- Type: cell-based, human
- CONDITION_LABEL: read-out: Proliferative inhibitory activity MDA-MB-435 (IC50 class)

{"columns": ["MOLECULE", "IC50"],
 "data": [
  ["CCn1nc(C#Cc2cc(C(=O)Nc3ccc(CN4CCN(C)CC4)c(C(F)(F)F)c3)ccc2C)c2c(N)ncnc21 [Compound 3]", "< 100 nM"]
]}

----------
- TARGET_DESC: Axl (Homo sapiens (Human), UniProt P30530)
- Sequence (P30530 26-894): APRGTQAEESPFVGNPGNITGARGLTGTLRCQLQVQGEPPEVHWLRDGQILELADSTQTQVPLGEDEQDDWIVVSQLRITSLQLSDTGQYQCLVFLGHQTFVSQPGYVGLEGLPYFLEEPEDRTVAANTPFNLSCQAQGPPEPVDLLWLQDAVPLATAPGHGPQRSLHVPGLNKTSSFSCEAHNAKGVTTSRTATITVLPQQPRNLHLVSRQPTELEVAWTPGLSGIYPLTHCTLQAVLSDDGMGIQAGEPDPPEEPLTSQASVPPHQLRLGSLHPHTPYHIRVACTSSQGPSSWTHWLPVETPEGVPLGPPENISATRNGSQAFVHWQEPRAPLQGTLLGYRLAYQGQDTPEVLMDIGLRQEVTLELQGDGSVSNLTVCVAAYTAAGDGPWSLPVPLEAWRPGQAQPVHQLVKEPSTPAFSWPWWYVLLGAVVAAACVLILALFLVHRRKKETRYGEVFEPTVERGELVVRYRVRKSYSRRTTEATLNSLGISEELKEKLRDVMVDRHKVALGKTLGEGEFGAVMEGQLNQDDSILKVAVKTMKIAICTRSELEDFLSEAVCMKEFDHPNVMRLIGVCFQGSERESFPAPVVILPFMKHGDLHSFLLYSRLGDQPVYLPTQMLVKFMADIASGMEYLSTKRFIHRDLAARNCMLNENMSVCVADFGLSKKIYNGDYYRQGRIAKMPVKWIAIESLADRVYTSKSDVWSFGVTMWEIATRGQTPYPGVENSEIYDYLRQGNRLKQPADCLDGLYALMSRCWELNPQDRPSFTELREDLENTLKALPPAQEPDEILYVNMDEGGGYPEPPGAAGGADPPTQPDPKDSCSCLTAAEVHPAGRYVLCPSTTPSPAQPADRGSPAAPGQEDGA

{"columns": ["COMPOUND", "UNITS_LABEL", "IC50"],
 "data": [
  ["CCn1nc(C#Cc2cc(C(=O)Nc3ccc(CN4CCN(C)CC4)c(C(F)(F)F)c3)ccc2C)c2c(N)ncnc21 [Compound 3]", "nM", 578]
]}
